Test: NCI Yeast Anticancer Drug Screen. Data for the bub3 strain (AID 167)
Conditions: S. cerevisiae bub3 mutant strain, at 50.0 µM, hits give high values
Compounds without any hit were thinned out: in the full panel of roughly 79,000, 15% have a hit.
Param threshold (80%) applies to growth inhibition; output True when value >= threshold, False when value < threshold.

Some solved entries appear below for comparison.
COMPOUND	ASSIGNED CATEGORY
O=C(Oc1ccccc1)C1CCCCC1C(=O)Oc1ccccc1 (stereo not given)	False
C1=C(C2=C[P+](c3ccccc3)(c3ccccc3)C=C(c3ccccc3)O2)OC(c2ccccc2)=C[P+]1(c1ccccc1)c1ccccc1	False
Cc1ccc(S(=O)(=O)Nc2ccccc2SSc2ccccc2NS(=O)(=O)c2ccc(C)cc2)cc1	False

Is it the case that O=C(OCc1ccccc1)N(CCCCN(CCCNCc1ccccc1)C(=O)OCc1ccccc1)CCCNCc1ccccc1 has growth inhibition reaching or exceeding 80%? True

Answer whether growth inhibition of O=C(NC(c1ccccc1)N1CCOCC1)c1ccccc1 (stereo not given) is greater than or equal to 80%. True
